biological target: Tyrosine-protein kinase CSK (Homo sapiens); conditions: at 0.1 µM;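 also: value given is the averaged percent inhibition of CSK kinase activity, from the GSK PKIS kinase inhibitor set screening panel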
property-name: inhibition (%)
Answers are plain numbers, in %.

These recorded examples may help you get a feel for the data.
In [3]: df
Out[3]:
                               entry_smiles                         target_under_test  reported
0  CN(c1ccc(NC(=O)Nc2c(Cl)cccc2Cl)cc1)c1ccnc(Nc2cccc(CS(C)(=O)=O)c2)n1  Tyrosine-protein kinase CSK (Homo sapiens)      10.6
1  C#Cc1cccc(Nc2ncnc3ccc(OCCCCNCCS(C)(=O)=O)cc23)c1  Tyrosine-protein kinase CSK (Homo sapiens)      3.24
2     O=C(Nc1n[nH]c2nc(-c3ccco3)ccc12)C1CC1  Tyrosine-protein kinase CSK (Homo sapiens)      0.84
3  CN(C)CCOc1ccc(-c2cc(-c3ccc4c(c3)CCC4=NO)c(-c3ccncc3)o2)cc1  Tyrosine-protein kinase CSK (Homo sapiens)     -2.53
4  CCS(=O)(=O)c1ccc(OC)c(Nc2ncc(-c3ccccc3Cl)o2)c1  Tyrosine-protein kinase CSK (Homo sapiens)      1.15
5  COc1cccc(-n2cnc3c(N/N=C/c4ccncc4)ncnc32)c1  Tyrosine-protein kinase CSK (Homo sapiens)      1.91
6    O=C(Nc1n[nH]c2cc(-c3ccccc3)ccc12)C1CC1  Tyrosine-protein kinase CSK (Homo sapiens)      2.97
7  O=C(Nc1n[nH]c2nc(-c3ccc(O)cc3)c(Br)cc12)C1CC1  Tyrosine-protein kinase CSK (Homo sapiens)      8.35
8     COc1cc(Nc2ncc(-c3ccccc3)o2)cc(OC)c1OC  Tyrosine-protein kinase CSK (Homo sapiens)     -1.07

Here is the next item to consider.
Query the reported inhibition for Tyrosine-protein kinase CSK (Homo sapiens); item: `Cc1nnc(-c2ccc(C)c(-c3ccc(C(=O)NCc4ccc(Cl)cc4)cc3)c2)o1`
3.38

---

target: Serine/threonine-protein kinase DCLK2 (Homo sapiens) (UniProt Q8N568); settings: at 0.1 µM;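 also: reported value is the mean percent inhibition of DCAMKL2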
Sequence (Q8N568 whole entry): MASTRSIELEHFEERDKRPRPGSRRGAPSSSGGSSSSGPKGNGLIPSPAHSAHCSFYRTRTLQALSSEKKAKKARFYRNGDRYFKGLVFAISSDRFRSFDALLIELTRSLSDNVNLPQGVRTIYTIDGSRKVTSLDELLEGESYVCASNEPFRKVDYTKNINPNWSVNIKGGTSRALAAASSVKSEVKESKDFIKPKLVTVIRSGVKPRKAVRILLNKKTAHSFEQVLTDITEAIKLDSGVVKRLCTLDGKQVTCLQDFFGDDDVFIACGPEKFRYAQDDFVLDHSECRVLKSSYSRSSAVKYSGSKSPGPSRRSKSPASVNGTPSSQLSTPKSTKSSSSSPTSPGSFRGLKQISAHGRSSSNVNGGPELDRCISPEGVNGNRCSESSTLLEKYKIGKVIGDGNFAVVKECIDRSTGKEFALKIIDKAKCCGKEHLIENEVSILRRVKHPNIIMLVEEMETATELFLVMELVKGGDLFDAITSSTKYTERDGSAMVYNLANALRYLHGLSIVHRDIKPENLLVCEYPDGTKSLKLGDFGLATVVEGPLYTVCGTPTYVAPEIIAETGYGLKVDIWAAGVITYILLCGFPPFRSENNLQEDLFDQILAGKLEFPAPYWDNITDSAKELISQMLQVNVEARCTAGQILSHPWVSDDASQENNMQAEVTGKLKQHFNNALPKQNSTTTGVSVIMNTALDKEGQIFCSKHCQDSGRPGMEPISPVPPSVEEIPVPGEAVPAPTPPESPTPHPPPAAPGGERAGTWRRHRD
property-name: inhibition
Phrase the answer as number then unit, nothing more needed.

// below: answered compounds
In [3]: df
Out[3]:
                               entry_smiles                         target_under_test  property_name  reported
0  NS(=O)(=O)c1ccc(Nc2cc(-c3ccc(O)c(F)c3)n[nH]2)cc1  Serine/threonine-protein kinase DCLK2 (Homo sapiens) (UniProt Q8N568)     inhibition     2.54%
1  Cc1ccc(NC(=O)c2ccoc2)cc1-c1ccc(C(=O)NCC2CC2)cc1  Serine/threonine-protein kinase DCLK2 (Homo sapiens) (UniProt Q8N568)     inhibition    -0.46%
2  O=C1NC(=O)C(c2cccc(Cl)c2)=C1Nc1ccc(Cl)c(C(=O)O)c1  Serine/threonine-protein kinase DCLK2 (Homo sapiens) (UniProt Q8N568)     inhibition     0.79%

Give one value of inhibition per listed compound.
1. CCc1nccc2c1nc(-c1nonc1N)n2CC
2. CCc1ccc(Oc2nccc(-c3c(-c4ccc(F)cc4)ncn3C3CCNCC3)n2)cc1
3. C[C@@H](Oc1cc(-n2cnc3ccc(OC4CCN(C)CC4)cc32)sc1C(N)=O)c1ccccc1Cl

-1.22%
-0.57%
-3.12%

---

molecular target: Serine/threonine-protein kinase PAK 2 (Homo sapiens) (UniProt Q13177); conditions: at 0.1 µM;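 also: values are mean percent inhibition of PAK2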
Sequence (Q13177 whole entry): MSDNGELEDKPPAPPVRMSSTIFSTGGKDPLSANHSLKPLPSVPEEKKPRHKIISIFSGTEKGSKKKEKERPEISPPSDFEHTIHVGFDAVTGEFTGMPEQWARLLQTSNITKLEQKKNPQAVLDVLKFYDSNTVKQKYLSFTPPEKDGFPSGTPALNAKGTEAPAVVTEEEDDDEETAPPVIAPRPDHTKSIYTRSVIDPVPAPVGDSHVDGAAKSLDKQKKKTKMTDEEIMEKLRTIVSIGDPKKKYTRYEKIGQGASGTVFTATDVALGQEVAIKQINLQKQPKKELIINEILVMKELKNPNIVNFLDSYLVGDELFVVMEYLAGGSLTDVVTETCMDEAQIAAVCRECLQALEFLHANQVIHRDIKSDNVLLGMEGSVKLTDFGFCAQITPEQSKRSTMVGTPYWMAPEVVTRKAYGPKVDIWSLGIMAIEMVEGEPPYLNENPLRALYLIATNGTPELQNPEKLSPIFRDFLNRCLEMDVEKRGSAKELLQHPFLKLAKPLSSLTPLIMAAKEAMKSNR
property-name: inhibition (%)
Answers are plain numbers, in %.

>>> print(df.to_string())
                               entry_smiles  property_name  reported
0  NC(=O)c1ccc(Oc2nccc(-c3c(-c4ccc(F)cc4)ncn3C3CCNCC3)n2)cc1     inhibition      2.27
1  O=C1NC(=O)C(c2cccc(Cl)c2)=C1Nc1ccc(Cl)c(C(=O)O)c1     inhibition      2.04
2        CNC(=O)c1cncc(/C=C/c2c(C)cccc2C)c1     inhibition      1.52

I would be grateful if you could provide inhibition for each of the following entries.
1. COc1cc(Nc2ncc3c(C)nc(-c4cccc(C(F)(F)F)c4)n3n2)cc(OC)c1OC
2. CCC(=O)Nc1ccc(C)c(-c2ccc(C(=O)NCC3CC3)cc2)c1
3. Cc1ccc(C(=O)NC(C)C)cc1-c1ccc(C(=O)NCC2CC2)cc1
4. CCS(=O)(=O)c1ccc(OC)c(Nc2ncc(-c3ccccc3Cl)o2)c1

1: 1.46; 2: 0.42; 3: -1.39; 4: 1.78

Working through the 3 molecules below one at a time, give inhibition for each.
1. CCN(CC)Cc1ccc(Nc2nccc(-c3cnn4ncccc34)n2)cc1
2. CCc1ccc(Oc2nccc(-c3c(-c4ccc(F)cc4)ncn3C3CCNCC3)n2)cc1
3. Fc1ccc(-c2c(-c3ccncc3)nc3n2CCS3)cc1

[1.19, 1.26, -0.52]

---

For each entry below, report its inhibition value.
biological target: Receptor tyrosine-protein kinase erbB-2 (Homo sapiens); conditions: at 0.1 µM;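 also: each value is the mean percent inhibition of ERBB2 over replicate measurements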
One number for each entry, in %.

// solved cases for inhibition follow
In [3]: df
Out[3]:
                                   compound  result_unit  reported
0  COc1ccc(-c2ccc3c(NC(=O)C4CC4)n[nH]c3n2)cc1            %       2.9
1  COc1ccc2cc(-c3c(-c4ccncc4)nc(-c4ccc([S+](C)[O-])cc4C)n3C)ccc2c1 (stereo not given)            %      1.42
2  CN(C)CCCNc1nccc(-c2c(-c3ccc(F)cc3)nn3cc(C(F)(F)F)ccc23)n1            %      0.46
3     NC(=O)c1cc(-c2ccncc2)cc(-c2ccccc2)c1N            %      4.68
4  N#Cc1ccc(Oc2nccc(-c3c(-c4ccc(F)cc4)ncn3C3CCNCC3)n2)cc1            %      4.34

Hello, I would appreciate it if you could give inhibition for each entry below.
1. CN(C)CCOc1ccc(-c2cc(-c3ccc4c(c3)CCC4=NO)c(-c3ccncc3)o2)cc1
2. O=C1Nc2ccc(I)cc2C1=Cc1cc(Br)c(O)c(Br)c1
3. NS(=O)(=O)c1ccc(Nc2cc(-c3ccc(O)c(F)c3)n[nH]2)cc1
4. O=C(Nc1n[nH]c2cc(-c3cc(F)ccc3F)ccc12)C1CC1

1: 3.66; 2: 3.38; 3: -5.39; 4: 3.32

Need inhibition of `O=C(Nc1n[nH]c2nc(-c3ccco3)ccc12)C1CC1` , thanks.
0.39

---

Could you please report measured inhibition for the items listed next?
Molecular target: NUAK family SNF1-like kinase 1 (Homo sapiens) (UniProt O60285)
Sequence (whole entry): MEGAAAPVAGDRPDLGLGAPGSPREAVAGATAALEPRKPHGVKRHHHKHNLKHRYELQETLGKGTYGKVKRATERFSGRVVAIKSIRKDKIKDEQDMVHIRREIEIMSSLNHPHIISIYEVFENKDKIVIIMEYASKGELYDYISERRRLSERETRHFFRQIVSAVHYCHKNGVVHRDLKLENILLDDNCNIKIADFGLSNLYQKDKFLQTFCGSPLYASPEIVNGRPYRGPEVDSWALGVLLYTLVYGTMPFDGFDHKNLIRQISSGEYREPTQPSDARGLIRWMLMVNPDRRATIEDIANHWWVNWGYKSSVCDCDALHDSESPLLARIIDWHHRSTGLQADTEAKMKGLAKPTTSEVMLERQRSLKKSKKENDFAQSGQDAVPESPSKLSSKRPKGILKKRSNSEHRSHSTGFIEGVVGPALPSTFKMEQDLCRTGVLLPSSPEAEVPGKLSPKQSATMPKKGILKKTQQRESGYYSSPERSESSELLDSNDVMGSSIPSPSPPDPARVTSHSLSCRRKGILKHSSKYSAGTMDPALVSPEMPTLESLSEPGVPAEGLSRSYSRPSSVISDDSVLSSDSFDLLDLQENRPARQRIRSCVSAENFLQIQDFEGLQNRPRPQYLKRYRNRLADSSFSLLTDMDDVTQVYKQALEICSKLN
Conditions: at 1 µM
Description: GSK_PKIS: ARK5 mean inhibition at 1 uM [Nanosyn]
Answers are plain numbers, in %.

Here is how some compounds turned out for inhibition.
>>> df
                               entry_smiles  result_unit  reported
0  CN(c1ccc(NC(=O)Nc2c(Cl)cccc2Cl)cc1)c1ccnc(Nc2cccc(CS(C)(=O)=O)c2)n1            %      30.2
1  CCc1ccc(Oc2nccc(-c3c(-c4ccc(F)cc4)ncn3C3CCNCC3)n2)cc1            %      3.95

Go through the items and report each one's inhibition.
1. CCC(=O)Nc1ccc(C)c(-c2ccc(C(=O)NCC3CC3)cc2)c1
2. Fc1ccc(-c2ncn(C3CCNCC3)c2-c2ccnc(Oc3ccc(Oc4ccccc4)cc3)n2)cc1
3. CN1CCN(CCCNc2nc3ccc(Oc4ccc(NC(=O)Nc5cc(C(F)(F)F)ccc5F)cc4)cc3[nH]2)CC1
4. CNC(=O)c1cncc(/C=C/c2c(C)cccc2C)c1
5. CCc1cccc(CC)c1/C=C/c1cncc(C(=O)NC)c1
6. C#Cc1cccc(Nc2ncnc3ccc(OCCCCNCCS(C)(=O)=O)cc23)c1
7. O=C(Nc1n[nH]c2nc(-c3ccc(O)cc3)c(Br)cc12)C1CC1
8. O=C1Nc2ccc(I)cc2C1=Cc1cc(Br)c(O)c(Br)c1

1. 1.36
2. 0.71
3. 4.39
4. 2.93
5. 6.57
6. 12.9
7. 30.2
8. 3.51
